# kon listing for each entry below
# experimental target: T1, Extracellular domain of cyno PD1 (cPD1-ECD) (Macaca fascicularis (cynomolgus))
# T1 construct: Expressed with a hexahistidine tag or as Fc fusion; also called cynoPD1-ECD; cynoPD-1-ECD
# T1 chain: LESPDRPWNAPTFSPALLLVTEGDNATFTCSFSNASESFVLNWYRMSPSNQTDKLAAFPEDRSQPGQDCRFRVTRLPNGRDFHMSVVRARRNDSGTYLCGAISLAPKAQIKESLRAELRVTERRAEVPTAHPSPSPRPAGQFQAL
# assay text: SPR ProteOn, captured mAb, cynoPD1-ECD analyte;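 further: ProteOn XPR36 SPR with antibodies held by anti-IgG Fc on a GLC chip, on-rate, off-rate and KD derived from a Langmuir one-to-one fit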
Value expressed in M⁻¹ s⁻¹; do not type the unit.

binder	kon / M⁻¹ s⁻¹
PD1B11 (antibody, V domains shown, Tested as IgG2sigma/kappa; also called PD1H3/PH9L3) VH: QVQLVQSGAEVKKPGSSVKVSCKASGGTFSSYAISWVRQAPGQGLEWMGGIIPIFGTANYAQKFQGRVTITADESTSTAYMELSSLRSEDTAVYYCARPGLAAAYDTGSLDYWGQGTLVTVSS VL: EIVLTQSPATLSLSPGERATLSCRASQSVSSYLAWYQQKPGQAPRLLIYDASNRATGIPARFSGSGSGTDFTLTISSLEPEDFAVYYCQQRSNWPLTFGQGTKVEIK	293000
PD1B70 (antibody, V domains shown, Tested as IgG2sigma/kappa; also called PD1H107/PH9L3) VH: QVQLVQSGAEVKKPGSSVKVSCKASGGTFSSYAISWVRQAPGQGLEWMGGIIPIFGTANYAQKFQGRVTITADESTSTAYMELSSLRSEDTAVYYCARGYVRATGMLDYWGQGTLVTVSS VL: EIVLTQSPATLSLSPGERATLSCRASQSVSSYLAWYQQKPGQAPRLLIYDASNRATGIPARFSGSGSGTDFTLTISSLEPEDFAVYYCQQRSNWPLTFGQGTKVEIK	210000
PD1B184 (antibody, human IgG2, kappa, V domains shown, IgG2sigma/kappa; VH 43, VL 50; also called PD1H3/PD1L128) VH: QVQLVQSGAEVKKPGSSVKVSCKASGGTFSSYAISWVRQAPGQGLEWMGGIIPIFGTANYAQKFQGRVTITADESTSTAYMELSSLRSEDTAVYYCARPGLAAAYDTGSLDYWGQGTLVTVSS VL: EIVLTQSPATLSLSPGERATLSCRASQSVRNYLAWYQQKPGQAPRLLIHDASNRATGIPARFSGSGSGTDFTLTISSLEPEDFAVYYCQQRNYWPLTFGQGTKVEIKR	238000

IN: Item PD1B187 (antibody, V domains shown, Tested as IgG2sigma; also called PD1H3/PD1L148) VH: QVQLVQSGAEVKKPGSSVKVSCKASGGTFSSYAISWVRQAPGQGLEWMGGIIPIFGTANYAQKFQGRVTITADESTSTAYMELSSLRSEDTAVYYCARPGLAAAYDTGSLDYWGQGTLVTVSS VL: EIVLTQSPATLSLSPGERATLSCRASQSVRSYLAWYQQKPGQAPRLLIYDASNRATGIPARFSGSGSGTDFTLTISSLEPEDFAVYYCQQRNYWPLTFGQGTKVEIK has what recorded kon?
OUT: 294000

IN: Name the recorded kon for PD1B175 (antibody, V domains shown, Tested as IgG2sigma; also called PD1H163/PH9L3) VH: QVQLVQSGAEVKKPGSSVKVSCKASGGTFKSYVIHWVRQAPGQGLEWMGGIIPIFGTANYAQKFQGRVTITADESTSTAYMELSSLRSEDTAVYYCARGYVRATGMLDYWGQGTLVTVSS VL: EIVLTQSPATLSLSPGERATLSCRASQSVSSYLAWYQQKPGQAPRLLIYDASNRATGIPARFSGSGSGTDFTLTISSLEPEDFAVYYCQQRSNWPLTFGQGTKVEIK .
OUT: 214000

IN: Consider the binder shown here: PD1B149 (antibody, human IgG2, kappa, V domains shown, IgG2sigma/kappa; VH 41, VL 50; also called PD1H24/PD1L128) VH: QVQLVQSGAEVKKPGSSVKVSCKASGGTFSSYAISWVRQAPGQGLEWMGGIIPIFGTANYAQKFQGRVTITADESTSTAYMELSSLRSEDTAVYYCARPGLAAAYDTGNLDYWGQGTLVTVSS VL: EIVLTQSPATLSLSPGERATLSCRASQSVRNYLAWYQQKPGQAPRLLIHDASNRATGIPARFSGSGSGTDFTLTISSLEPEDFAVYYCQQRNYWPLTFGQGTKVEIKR What is its recorded kon?
OUT: 320000

IN: What measured kon goes with PD1B185 (antibody, human IgG2, kappa, V domains shown, IgG2sigma/kappa; VH 43, VL 55; also called PD1H3/PD1L132) VH: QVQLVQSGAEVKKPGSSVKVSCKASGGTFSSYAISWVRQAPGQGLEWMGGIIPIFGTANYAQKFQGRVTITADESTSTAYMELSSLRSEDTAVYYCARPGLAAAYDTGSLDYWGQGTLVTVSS VL: EIVLTQSPATLSLSPGERATLSCRASQSVRNYLAWYQQKPGQAPRLLIYDASDRATGIPARFSGSGSGTDFTLTISSLEPEDFAVYYCQQRWNWPLTFGQGTKVEIKR ?
OUT: 311000

IN: What does the record list as kon for PD1B164 (antibody, human IgG2, kappa, V domains shown, IgG2sigma/kappa; VH 42, VL 53; also called PD1H131/PD1L71) VH: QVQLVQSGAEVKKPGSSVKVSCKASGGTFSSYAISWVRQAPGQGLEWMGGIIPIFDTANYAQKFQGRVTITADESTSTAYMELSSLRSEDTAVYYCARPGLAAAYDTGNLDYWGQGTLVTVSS VL: EIVLTQSPATLSLSPGERATLSCRASQSVRSYLAWYQQKPGQAPRLLIYDASYRATGIPARFSGSGSGTDFTLTISSLEPEDFAVYYCQQRDYWPLTFGQGTKVEIKR ?
OUT: 267000

IN: Suppose we examine the binder PD1B114 (antibody, human IgG2, kappa, V domains shown, IgG2sigma/kappa; also called PD1H24/PH9L3) VH: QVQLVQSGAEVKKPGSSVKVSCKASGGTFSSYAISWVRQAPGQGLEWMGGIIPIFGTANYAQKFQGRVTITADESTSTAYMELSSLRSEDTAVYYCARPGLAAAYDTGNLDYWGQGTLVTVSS VL: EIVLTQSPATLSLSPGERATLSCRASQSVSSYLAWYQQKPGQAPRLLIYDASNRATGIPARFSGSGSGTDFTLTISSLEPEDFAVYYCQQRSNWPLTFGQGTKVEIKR ; what kon value has been reported?
OUT: 294000

IN: Entry PD1B183 (antibody, human IgG2, kappa, V domains shown, IgG2sigma/kappa; VH 43, VL 54; also called PD1H3/PD1L109) VH: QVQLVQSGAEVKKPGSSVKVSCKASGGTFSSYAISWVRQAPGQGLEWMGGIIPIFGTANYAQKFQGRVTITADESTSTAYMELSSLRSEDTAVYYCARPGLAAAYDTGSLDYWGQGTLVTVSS VL: EIVLTQSPATLSLSPGERATLSCRASQSVSSYLAWYQQKPGQAPRLLIKDASNRATGIPARFSGSGSGTDFTLTISSLEPEDFAVYYCQQRGYWPLTFGQGTKVEIKR has what kon?
OUT: 320000

IN: Suppose we examine the binder PD1B71 (antibody, V domains shown, Tested as IgG2sigma/kappa; also called PD1H108/PH9L3) VH: QVQLVQSGAEVKKPGSSVKVSCKASGGTFSSYAISWVRQAPGQGLEWMGGIIPIFGTANYAQKFQGRVTITADESTSTAYMELSSLRSEDTAVYYCARGTLDRTGHLDYWGQGTLVTVSS VL: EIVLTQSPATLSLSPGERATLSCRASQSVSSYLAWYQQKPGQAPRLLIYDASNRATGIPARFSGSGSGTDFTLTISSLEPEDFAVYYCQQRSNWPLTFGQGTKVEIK ; what kon value has been reported?
OUT: 304000

Sourced from patent US20210277110A1
